compounds and their reported TGI
Tested on: NCI/ADR-RES ovarian
METHOD DESCRIPTION: NCI tumour cell line growth inhibition, 48 h

COMPOUND	TGI
CCOC(=O)/C=C/CCC(C)(C)COC(C)=O	> 10 µM
CC(C)=CCc1c(O)cc2oc(-c3ccc(O)cc3O)cc(=O)c2c1O	> 94.4 µM
N#Cc1cccc(C2C3=C(COC3=O)N(CCO)c3cc4c(cc32)OCO4)c1 (configuration not stated)	> 50 µM
COc1ccc(S(=O)(=O)N(C(C)=O)c2ccccc2/C=C/c2cc[n+]([O-])cc2)cc1	> 10 µM
CCOC(=O)c1csc(NC(=O)CCN2CCN(C)CC2)n1	> 100 µM
Cc1nc2c(=O)n(-c3ccccc3)c(=O)n(-c3ccccc3)c2o1	> 100 µM
CN1C2=Nc3n(c4ccccc4[n+]3C)CN2c2ccccc21	> 100 µM
